Just for reference, patent US20220395500A1 is where these values come from.

Let's look at some compounds and their measured EC50.
Test system: IRF-Lucia luciferase reporter (ISRE) in J774-Dual cells
protocol: J774-Dual IRF-Lucia luciferase reporter assay (ISRE activation)
Type: cell-based, mouse
particulars: Mus musculus, J774, Mouse Reporter Cell Line, 8-point dose response; read-out: J774 IRF EC50
Give the number; µM is assumed, so skip it.

| compound | EC50 (µM) |
| --- | --- |
| O=C(Nc1ccc(N2CCN(C(=O)c3cccs3)CC2)cc1)c1ccc(OCc2ccccc2)nc1 [NA-59] | 3.09 |

With those in mind, consider the next compound.
Would you mind telling me what EC50 value was observed for O=C(Nc1ccc(N2CCN(C(=O)c3cccs3)CC2)cc1)c1ccc(OCc2cccc(Cl)c2)cc1 [NA-33] ? 2.64

* * *

Overview of recorded CC50 for various compounds
protocol: J774-Dual cytotoxicity
Assay type: cell-based, mouse
particulars: mouse, J774-Dual cells, Mouse Reporter Cell Line J774; read-out: J774 cytotox CC50

# example entries with known answers
| compound | experimental_result |
| --- | --- |
| Cc1ccc(C(=O)Nc2ccc(O)c(-c3nc4ccccc4s3)c2)cc1[N+](=O)[O-] [ND-63] | > 25 µM |
| O=c1cc(NC[C@H](O)[C@H](O)[C@H](O)CO)[nH]c(=O)[nH]1 [ND-100] | > 25 µM |
| COc1ccc(C(=O)Nc2nc(-c3cc4ccccc4oc3=O)cs2)nc1 [ND-27] | > 25 µM |
| Cc1ccc(-c2nc3ccccc3o2)cc1NC(=O)c1ccc(C)c([N+](=O)[O-])c1 [ND-30] | > 25 µM |
| Cc1cccc([C@H](C)c2cnc[nH]2)c1C [ND-76] | > 25 µM |

Value lookup for CC50; key = COCOc1ccc2oc(-c3ccc(C)c(NC(=O)c4ccc(OC)c([N+](=O)[O-])c4)c3)nc2c1 [ND-95] > 25 µM

Name the recorded CC50 for COc1ccc(C(=O)Nc2cccc(-c3nc4ncccc4o3)c2)cc1Br [ND-47] . > 25 µM

Endpoint output: CC50 of Cc1cc(C)c2c(N)c(C(=O)Nc3ccc4ccccc4c3)sc2n1 [ND-6] . Value? > 25 µM

Report CC50 for ClCCCOc1ccc(-c2nc3ccc(OCCCCl)cc3o2)cc1 [ND-73] please. > 25 µM

What CC50 value was documented for this compound, Cc1ccc(NC(=O)c2cc(NC(=O)c3cccs3)ccc2N2CCOCC2)cc1Br [NB-23] ? 36.9 µM

Item under review: O=C(Cc1ccc(Cl)cc1)Nc1cccc(-c2nnc(-c3ccco3)o2)c1 [ND-7] . Reported CC50? > 25 µM

# input compound: Cc1ccc(-c2nc3ccccc3s2)cc1NC(=O)c1ccc(Cl)c([N+](=O)[O-])c1 [ND-64] ; wanted: its CC50 > 25 µM

// CC50 lookup, key: COc1ccc(C(=O)Nc2cccc(-c3nc4cc(C)c(C)cc4o3)c2)cc1[N+](=O)[O-] [ND-46] 27.9 µM

// lookup CC50 for CN(C)CCCOc1ccc(-c2nc3cc(OCCCN4CCCC4)ccc3o2)cc1 [ND-93] > 25 µM

* * *

System: J774-Dual cells
protocol: J774-Dual cytotoxicity
Type: cell-based, mouse
particulars: Mouse Reporter Cell Line; read-out: J774 cytotox CC50
readout_name: CC50

Look up CC50: O=C(Nc1ccc(N2CCN(C(=O)c3ccccc3Cl)CC2)cc1)c1ccc(OCc2ccccc2)cc1 [NA-49] > 25 µM
